- TARGET_OF_ASSAY: BRD9 (Homo sapiens, UniProt Q9H8M2)
- ASSAY_OVERVIEW: Degradation of BRD9 (IF), immunofluorescence in MV4-11 cells, 24 hours (Assay Protocol 2)
- Assay type: cell-based
- Design: A suspension of MV4-11 cells (ATCC CRL-9591) was prepared; host or cells: MV4-11
- CONDITION_SET: MV4-11, Assay protocol 2; BRD9 degradation; read-out: Dmax
PROPERTY_NAME: Dmax

Incoming: Could you tell me which Dmax is on file for COc1cc(-c2cn(C)c(=O)c(C)c2C)ccc1OC1CCC(Cc2cccc3c2CCN(C(=O)C(C#N)=CC(C)(C)N2CCN(C4COC4)CC2)C3C(C)C)CC1 (single isomer, unassigned) [Compound C86] ?
Outgoing: > 75%

Incoming: Which Dmax reading was recorded for the compound COc1cc(-c2cn(C)c(=O)c(C)c2C)cc(OC)c1CN1CCN(Cc2cccc3c2CCN(C(=O)/C(C#N)=C/C(C)(C)N2CCN(C4COC4)CC2)C3C)C2(CC2)C1 (mixture of isomers) [Compound B126] ?
Outgoing: 70 to 75%

Incoming: Request the reported Dmax associated with COc1cc(-c2cn(C)c(=O)c(C)c2C)cc(OC)c1CN1CCN(Cc2cccc3c2CCN(C(=O)/C(C#N)=C/C(C)(C)CF)C3C(C)C)C2(CC2)C1 (mixture of isomers) [Compound C24]
Outgoing: > 75%

---

Hi there, I'd appreciate the recorded DC50 for every entry that follows.
- TARGET_OF_ASSAY: BRD9 (Homo sapiens, UniProt Q9H8M2)
- Sequence (Q9H8M2 1-597): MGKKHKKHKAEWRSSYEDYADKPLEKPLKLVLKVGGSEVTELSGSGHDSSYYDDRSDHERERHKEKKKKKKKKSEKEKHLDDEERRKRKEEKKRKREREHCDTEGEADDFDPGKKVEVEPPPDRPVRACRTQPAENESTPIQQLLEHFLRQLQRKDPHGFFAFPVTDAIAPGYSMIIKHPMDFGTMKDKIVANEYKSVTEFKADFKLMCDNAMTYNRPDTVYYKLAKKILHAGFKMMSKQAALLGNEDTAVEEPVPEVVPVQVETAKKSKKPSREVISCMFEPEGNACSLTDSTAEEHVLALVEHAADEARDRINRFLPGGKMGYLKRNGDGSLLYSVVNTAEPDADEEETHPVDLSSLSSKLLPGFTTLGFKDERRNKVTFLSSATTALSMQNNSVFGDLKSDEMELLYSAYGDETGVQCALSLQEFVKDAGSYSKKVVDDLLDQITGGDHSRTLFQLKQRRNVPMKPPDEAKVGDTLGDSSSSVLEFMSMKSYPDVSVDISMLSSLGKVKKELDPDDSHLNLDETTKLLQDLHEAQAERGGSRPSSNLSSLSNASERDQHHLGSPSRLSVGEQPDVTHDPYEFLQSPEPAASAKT
- ASSAY_OVERVIEW: Degradation of BRD9 (IF), immunofluorescence in MV4-11 cells, 24 hours (Assay Protocol 2)
- Type: cell-based
- Parameters: A suspension of MV4-11 cells (ATCC CRL-9591) was prepared; host or cells: MV4-11
- CONDITION_SET: Assay protocol 2; BRD9 degradation; read-out: DC50

Incoming: Look up DC50: CCC1c2cccc(CN3CCN(Cc4c(OC)cc(-c5cn(C)c(=O)c(C)c5C)cc4OC)CC34CC4)c2CCN1C(=O)/C(C#N)=C/C(C)(C)C (single isomer, unassigned) [Compound C94]
Outgoing: < 1.25 nM

Incoming: Consider the compound shown here: COc1cc(-c2cn(C)c(=O)c(C)c2C)cc(OC)c1C(=O)N1CCC(Oc2cccc3c2CCN(C(=O)/C(C#N)=C/c2cccc(Br)n2)C3C)CC1 (mixture of isomers) [Compound B88] What is its recorded DC50?
Outgoing: 10 to 25 nM

Incoming: Requested read-out: DC50. Entry: COc1cc(-c2cn(C)c(=O)c(C)c2C)cc(OC)c1CN(C)Cc1cccc2c1CCN(C(=O)/C(C#N)=C/c1cccc(Br)n1)C2C (mixture of isomers) [Compound B14]
Outgoing: 1.25 to 10 nM

Incoming: Which DC50 value is on record for COc1cc(-c2cn(C)c(=O)c3ccsc23)cc(OC)c1CN1CCN(Cc2cccc3c2CCN(C(=O)/C(C#N)=C/c2cccc(Br)n2)C3C)C2(CC2)C1 (mixture of isomers) [Compound B108] ?
Outgoing: < 1.25 nM

Incoming: Dear colleague, I am looking for the recorded DC50 of the following compound: COc1ccc([C@@H]2CN(C(=O)/C(C#N)=C/c3nccs3)C[C@H]2C(=O)N2CCN(Cc3c(OC)cc(-c4cn(C)c(=O)c(C)c4C)cc3OC)CC2)cc1 [Compound B27]
Outgoing: 1.25 to 10 nM

Incoming: // DC50 lookup, key: COc1cc(-c2cn(C)c(=O)c(C)c2C)cc(OC)c1CN1CCN(c2cccc3c2CCN(C(=O)/C(C#N)=C/c2cccc(Br)n2)C3C)CC1 (single isomer, unassigned) [Compound C28]
Outgoing: 25 to 1000 nM

Incoming: Looking for the measured DC50 of CC[C@@H]1c2cccc(CN3CCN(Cc4c(OC)cc(-c5cn(C)c(=O)c(C)c5C)cc4OC)C4(CC4)C3)c2CCN1C(=O)/C(C#N)=C/C(C)(C)C (single isomer, unassigned) [Compound C91] , can you help?
Outgoing: < 1.25 nM

Incoming: Look at this compound and give its reported DC50. COc1cc(-c2cn(C)c(=O)c(C)c2C)cc(OC)c1CN1CCN(Cc2cccc3c2CCN(C(=O)C(C#N)=Cc2cccc(Br)n2)C3C)C(C)(C)C1 (mixture of isomers) [Compound B99]
Outgoing: 25 to 1000 nM

Incoming: Consider the compound COc1cc(-c2cn(C)c(=O)c(C)c2C)cc(OC)c1CN1CCCN(Cc2cccc3c2CCN(C(=O)/C(C#N)=C/C(C)(C)C)C3C(C)C)CC1 (mixture of isomers) [Compound C11] and give its measured DC50.
Outgoing: 1.25 to 10 nM

Incoming: Entry under review: COc1cc(-c2cn(C)c(=O)c(C)c2C)cc(OC)c1CN1C[C@H](C)N(Cc2cccc3c2CCN(C(=O)/C(C#N)=C/c2cccc(Br)n2)C3C)[C@@H](C)C1 (mixture of isomers) [Compound B110] . Reported DC50?
Outgoing: 25 to 1000 nM

Origin of values: patent US20260092061A1
